Target: Nuclear receptor subfamily 1 group I member 3 (Homo sapiens) (UniProt Q14994)
Sequence (Q14994 whole entry, looked up): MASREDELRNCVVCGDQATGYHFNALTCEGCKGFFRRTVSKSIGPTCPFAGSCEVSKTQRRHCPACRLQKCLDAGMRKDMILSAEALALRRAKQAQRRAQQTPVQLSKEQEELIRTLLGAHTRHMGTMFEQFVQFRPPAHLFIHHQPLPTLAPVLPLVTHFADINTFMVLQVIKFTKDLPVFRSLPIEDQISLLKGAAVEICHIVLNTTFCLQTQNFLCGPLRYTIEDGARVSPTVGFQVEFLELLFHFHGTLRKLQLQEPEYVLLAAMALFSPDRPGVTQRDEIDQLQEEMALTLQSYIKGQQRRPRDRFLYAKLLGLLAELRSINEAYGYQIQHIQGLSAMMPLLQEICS
Assay: qHTS assay to identify small molecule antagonists of the constitutive androstane receptor (CAR) signaling pathway (AID 1224838);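 further: HepG2 cells stably expressing hCAR with CYP2B6 luciferase reporter stimulated by CITCO; nearly all actives have a fitted effect of over 40% in size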
Conditions: HepG2-CYP2B6-hCAR luciferase, CITCO-stimulated, 24 h; series mostly up to 92.4 µM
Results filed as inconclusive are left out. The source made the active and inactive calls. The call rests on the fitted dose curve; in most records, active means well fitted inhibition curve with a large enough effect in the repeat runs; inconclusive means weak or mixed curves, or effect the other way; inactive means no such curve, though single readings can be large or run the other way.
Form entry, call: pick from active, inactive

Would you please look over these solved cases?
CN/C(=N\[N+](=O)[O-])NCc1cnc(Cl)s1 | inactive
CC(Cc1ccc(OCC(=O)O)cc1)NCC(O)c1csc(C(F)(F)F)n1 (stereo unspecified) | inactive
CCCCCCC[CH2][Sn]([Cl])([Cl])[CH2]CCCCCCC | inactive
ClCBr | inactive
COC(=O)/C=C(\C)OP(=O)(OC)OC | inactive
Clc1cc(Cl)c(-c2cc(Cl)c(Cl)cc2Cl)cc1Cl | inactive

For Cc1ccccc1OP(=O)(Oc1ccccc1C)Oc1ccccc1C , which call appears in the assay record?
inactive

Please give the result for CCCCC/C=C\C/C=C\C/C=C\C/C=C\CCCC(=O)NCC(=O)O too.
inactive

Please give the result for CC[C@H](C)[C@H]1O[C@]2(C=C[C@@H]1C)C[C@@H]1C[C@@H](C/C=C(\C)[C@@H](O[C@H]3C[C@H](OC)[C@@H](O[C@H]4C[C@H](OC)[C@@H](NC)[C@H](C)O4)[C@H](C)O3)[C@@H](C)/C=C/C=C3\CO[C@@H]4[C@H](O)C(C)=C[C@@H](C(=O)O1)[C@]34O)O2 too.
active

Please give the result for O=P(Cl)(Cl)Cl too.
inactive

Please give the result for O=S1OCC2C(CO1)C1(Cl)C(Cl)=C(Cl)C2(Cl)C1(Cl)Cl (stereo unspecified) too.
inactive

---

Test: qHTS assay to identify small molecule agonists of the TGF-beta/Smad signaling pathway - cell viability counter screen (AID 1346829); further: nearly all actives have a fitted effect of over 45% in size
Details: SBE-bla HEK293T viability, CellTiter-Glo luminescence, 5 h; series mostly up to 76.8 µM
Inconclusive results are not listed. The source made the active and inactive calls. Calls come from the whole dose curve; as a rule, active = well fitted cell-killing curve with a large enough effect in the repeat runs; inconclusive = weak or mixed curves, or effect the other way; inactive = flat fitted curve, though single readings scatter.
Form entry, call: pick from active, inactive

Would you please look over these solved cases?
CCCCCCC[CH2][Sn]([Cl])([Cl])[CH2]CCCCCCC | inactive
COc1ccc(Cc2nccc3cc(OC)c(OC)cc23)cc1OC | inactive
Cc1ccc([N+](=O)[O-])[c]2c1[O][Hg]2 | active
Nc1ccc(Cl)cc1C(=O)c1ccccc1F | inactive
O=P(Cl)(Cl)Cl | inactive

For Fc1ccc(C(OCCN2CCN(CCCc3ccccc3)CC2)c2ccc(F)cc2)cc1 , which call appears in the assay record?
active

Please give the result for COP(=S)(OC)Oc1nc(Cl)c(Cl)cc1Cl too.
inactive

Please give the result for CCOP(=O)(OCC)Oc1cc(C)nc(C(C)C)n1 too.
inactive

Please give the result for CO/N=C(/C1=NOCCO1)c1ccccc1Oc1ncnc(Oc2ccccc2Cl)c1F too.
inactive

Please give the result for COC(=O)c1cc(Oc2ccc(Cl)cc2Cl)ccc1[N+](=O)[O-] too.
inactive

Please give the result for Cc1ccc(C)c2ccccc12 too.
inactive

Please give the result for [Cl][Hg][c]1ccccc1 too.
active

Please give the result for CCC1COC(Cn2cncn2)(c2ccc(Cl)cc2Cl)O1 (stereo not drawn) too.
inactive

---

Biological target: Luciferin 4-monooxygenase (Photinus pyralis)
Experiment: qHTS assay to identify small molecule inhibitors of firefly luciferase (AID 1224835); further: nearly all actives have a fitted effect of over 25% in size
Settings: purified P. pyralis luciferase, luminescence inhibition; series mostly up to 115 µM
Inconclusive results are not listed. Activity calls are given as the source filed them. The call rests on the fitted dose curve; in most records, active means well fitted inhibition curve with a large enough effect in the repeat runs; inconclusive means weak or mixed curves; inactive means flat fitted curve, though single readings scatter.
Form entry, call: pick from 1 = active, -1 = inactive

Would you please look over these solved cases?
CC(C)=CC1C(C(=O)OC(C#N)c2cccc(Oc3ccccc3)c2)C1(C)C (configuration not stated) | -1
Oc1ccc(Cl)c(Cl)c1 | -1
NC1CCC(CC2CCC(N)CC2)CC1 (configuration not stated) | -1
CC(C)C(Nc1ccc(C(F)(F)F)cc1Cl)C(=O)OC(C#N)c1cccc(Oc2ccccc2)c1 (configuration not stated) | -1
CCCCC(CC)COC(=O)OOC(C)(C)C (configuration not stated) | -1

For COCCC#N , which call appears in the assay record?
-1

Where these numbers come from: PubChem BioAssay (Tox21)
